The measured values listed here are drawn from ChEMBL document CHEMBL3352272.

- TEST SYSTEM: fMet-Leu-Phe receptor (Homo sapiens, UniProt P21462)
- Sequence (P21462 whole entry): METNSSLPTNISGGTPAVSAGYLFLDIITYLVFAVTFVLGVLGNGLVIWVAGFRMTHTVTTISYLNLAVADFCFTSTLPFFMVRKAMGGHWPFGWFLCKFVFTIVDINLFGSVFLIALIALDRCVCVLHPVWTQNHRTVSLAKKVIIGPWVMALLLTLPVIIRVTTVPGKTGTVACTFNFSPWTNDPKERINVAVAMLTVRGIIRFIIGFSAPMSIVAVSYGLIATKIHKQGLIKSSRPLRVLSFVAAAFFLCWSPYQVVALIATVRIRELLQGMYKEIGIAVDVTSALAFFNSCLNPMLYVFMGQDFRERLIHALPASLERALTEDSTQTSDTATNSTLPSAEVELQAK
- ASSAY OVERVIEW: Antagonist activity at fMLF receptor in human PMNs assessed as inhibition of fMLF-induced intracellular Ca2+ release by fluorescence based calcium flux assay
pIC50: −log10 of the molar value.
MEASURE NAME: pIC50

Form: compound = `O=C(Nc1ccc(F)cc1)c1ccc(SCc2ccccc2B(O)O)nc1` ; pIC50 = < 5.30

----------
- TEST SYSTEM: C-X-C chemokine receptor type 2 (Homo sapiens)
- Sequence (P25025 whole entry): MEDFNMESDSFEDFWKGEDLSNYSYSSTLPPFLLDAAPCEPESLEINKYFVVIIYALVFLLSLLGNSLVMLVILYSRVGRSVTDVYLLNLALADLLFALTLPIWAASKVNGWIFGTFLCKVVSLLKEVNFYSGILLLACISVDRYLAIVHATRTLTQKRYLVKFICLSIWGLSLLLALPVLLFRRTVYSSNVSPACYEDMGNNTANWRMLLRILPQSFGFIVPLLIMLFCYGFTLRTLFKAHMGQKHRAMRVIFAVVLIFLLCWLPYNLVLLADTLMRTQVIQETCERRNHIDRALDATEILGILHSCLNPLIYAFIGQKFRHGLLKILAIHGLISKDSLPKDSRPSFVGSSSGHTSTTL
- ASSAY OVERVIEW: Antagonist activity at human CXCR2 expressed in HEK293 cells assessed as inhibition of CXCL8-induced intracellular Ca2+ release by fluorescence based calcium flux assay
- Format: functional, cell-based
MEASURE NAME: IC50 (nM)
Numbers only, in nM.

Form: molecule = `O=C(Nc1ccc(F)cc1)c1ccc(SCc2ccccc2B(O)O)nc1` ; IC50 = 210

----------
- TEST SYSTEM: UniProt P25025
- ASSAY OVERVIEW: Antagonist activity at CXCR2 in human PMNs assessed as inhibition of CXCL1-induced intracellular Ca2+ release by fluorescence based calcium flux assay
- Format: functional, cell-based
MEASURE NAME: IC50

Per the reported UniProt P25025 data, `O=C(Nc1ccc(F)cc1)c1ccc(SCc2ccc(-n3cccn3)cc2)nc1` has IC50 of > 10 µM

For each of the items listed, what is its IC50?
1. Cc1nc(-c2ccc(CSc3ccc(C(=O)Nc4ccc(F)cc4)cn3)cc2)no1
2. O=C(c1ccc(SCc2ccccc2B(O)O)nc1)N(CC1CCCCN1)c1ccc(F)cc1 (configuration not stated)
3. Cc1cccc(CSc2ccc(C(=O)Nc3ccc(F)cc3)cn2)c1F

Output:
> 5 µM
> 5 µM
> 10 µM

For each of the items listed, what is its IC50?
1. Cc1nc(-c2cccc(CSc3ccc(C(=O)Nc4ccc(F)cc4)cn3)c2)no1
2. O=C(Nc1ccc(F)cc1)c1ccc(SC[N+](=O)[O-])nc1
3. Cc1nc(-c2cccc(CSc3ccc(C(=O)Nc4ccc(F)cc4)cn3)c2)cs1

Output:
["> 10 µM", "> 10 µM", "> 5 µM"]

----------
- TEST SYSTEM: C-X-C chemokine receptor type 1 (Homo sapiens, UniProt P25024)
- Sequence (P25024 whole entry): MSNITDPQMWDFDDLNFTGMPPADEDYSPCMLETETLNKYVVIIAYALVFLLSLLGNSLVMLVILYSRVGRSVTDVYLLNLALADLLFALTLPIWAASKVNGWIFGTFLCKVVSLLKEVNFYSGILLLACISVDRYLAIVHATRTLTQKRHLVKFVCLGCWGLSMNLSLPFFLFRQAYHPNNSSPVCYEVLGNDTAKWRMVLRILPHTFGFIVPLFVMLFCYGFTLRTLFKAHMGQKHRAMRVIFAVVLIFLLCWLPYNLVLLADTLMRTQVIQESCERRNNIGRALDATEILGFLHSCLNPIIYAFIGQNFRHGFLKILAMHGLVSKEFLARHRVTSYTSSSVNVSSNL
- ASSAY OVERVIEW: Antagonist activity at human CXCR1 expressed in HEK293 cells assessed as inhibition of CXCL8-induced intracellular Ca2+ release by fluorescence based calcium flux assay
MEASURE NAME: pIC50
Answers are plain numbers, as −log10 of the molar value.

Form: compound = `O=C(Nc1ccc(F)cc1)c1ccc(SCc2ccccc2B(O)O)nc1` ; pIC50 = 6.06
